Listed below: pKd values for each entry.
Target: T1, 14-3-3η, full length, N-terminally His6-tagged (human, UniProt Q04917 1-246)
T1 chain: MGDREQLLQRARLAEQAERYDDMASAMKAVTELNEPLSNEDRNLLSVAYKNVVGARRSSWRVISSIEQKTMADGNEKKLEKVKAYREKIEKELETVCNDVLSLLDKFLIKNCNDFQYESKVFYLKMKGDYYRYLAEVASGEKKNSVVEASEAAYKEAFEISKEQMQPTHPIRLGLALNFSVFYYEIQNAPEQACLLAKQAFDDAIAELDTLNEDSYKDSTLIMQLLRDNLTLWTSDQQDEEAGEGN
Test: FP
Primed or numbered codes have the meaning given here. Where no end group is shown, it is not given here. [ ]: non-standard residue; d: D form. The star is where a group is joined. PEG2′ = short PEG linker placed between the N-terminal FITC label and the peptide; FITC = O=C1OC2(c3ccc(O)cc3Oc3cc(O)ccc32)c2ccc(NC(=S)*)cc21; pS = N[C@@H](COP(=O)(O)O)C(=O)O
Quick note: pKd values are minus log10 of concentrations in mol/L.

# binder, observable, assay_result
measured = [
    ("{FITC-PEG2′}-EKNKNAN[pS]SPVASTTPSASATTNPASATTLDQSKAWNR (also: second phosphorylation within Ser61–Thr64, site not given here) [fluorescently labeled peptide 10, APN 36–73, bis-phosphorylated]", "pKd", 6.38),
    ("{FITC-PEG2′}-EKNKNAN[pS]SPVASTTPSASATTNPASATTLDQSKAWNR (also: second phosphorylated Ser/Thr, site not given here) [fluorescently labeled peptide 9, APN 36–73, bis-phosphorylated]", "pKd", 4.82),
    ("{FITC-PEG2′}-EKNKNAN[pS]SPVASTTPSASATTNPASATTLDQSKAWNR (also: second phosphorylated Ser/Thr, site not given here) [fluorescently labeled peptide 8, APN 36–73, bis-phosphorylated]", "pKd", 4.74),
]

Attention now turns to another entry.
Q: Look up pKd: {FITC-PEG2′}-EKNKNAN[pS]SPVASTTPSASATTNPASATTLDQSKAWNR (also: second phosphorylation within Ser61–Thr64, site not given here) [fluorescently labeled peptide 12, APN 36–73, bis-phosphorylated]
A: 6.74

All figures here come from paper PMC7939381.
